System: UACC-257 melanoma
procedure text: NCI-60 one-dose screen, 48 h
setup conditions: 10 µM unless noted
Compounds without any hit were thinned out: in the full panel of roughly 83,000, 20% have a hit. Activity calls are given as the source filed them. The calls were made as follows: active = growth percent below 10; inactive = the rest.
Just give me one of these, please: TRUE = active, FALSE = inactive

compound	cat
COC(=O)[C@]12CC[C@@H](C)[C@H](C)[C@@H]1C1=CC[C@@H]3[C@@]4(C)C(C=O)=C[C@@](C)(COC(=O)c5ccco5)[C@@H]4C(=O)C[C@@]3(C)[C@]1(C)CC2	TRUE
N#C/C(=C/C=C/c1cccc(Cl)c1)S(=O)c1ccccc1 (centres undefined)	TRUE
COC(=O)[C@]12CC[C@@H](C)[C@H](C)[C@@H]1C1=CC[C@@H]3[C@@]4(C)C(C=O)=C[C@@](C)(COS(C)(=O)=O)[C@@H]4C(=O)C[C@@]3(C)[C@]1(C)CC2	FALSE

Now consider a different compound.
Asked: Each compound tested received a call. Report the one for Cc1cc(NCCCCNc2ccnc3cc(Cl)ccc23)nc(Nc2ccc(C(=O)N3CCCCC3)cc2)n1 .
Given back: TRUE

---

Test system: PC-3 prostate
procedure text: NCI-60 one-dose screen, 48 h (100 = growth as untreated, 0 = no growth, -100 = all killed)
setup conditions: 10 µM unless noted
The panel holds about 83,000 compounds, 20% with a hit somewhere; the sample as a whole holds those more often.
readout label: growth (%)
Hi! Could you send only the number? It should be in %, unit omitted.

Some compounds with known growth results, for comparison:
compound	readout label	endpoint unit	result number
O=C(N/N=C/C=C/c1ccc([N+](=O)[O-])o1)c1cc2ccccc2cc1O	growth	%	4.52
Clc1cccc(Cl)c1C(Nc1nc2ccccc2s1)Nc1nc2ccccc2s1	growth	%	74.2

Asked: Field request: growth | item: O=C(Nc1ccccc1)Nc1cccc(Oc2nnc(Cl)c3ccccc23)c1
Given back: 25.9

Asked: I would be grateful if you could share the reported growth for CCCCCCCCCCN(CCCCCCCCCC)CC(=O)c1ccc2cc(Br)c3ccccc3c2c1 .
Given back: -71.7

Asked: I have this compound here, c1csc(-c2c3ccc(=[N+]4CCCCC4)cc-3oc3cc(N4CCCCC4)ccc23)c1 , and I need its recorded growth.
Given back: -65.7

Asked: Requested read-out: growth. Entry: O=C(Cc1ccc(F)c(F)c1)Nc1cc(C2(C(F)(F)F)CC2)nn1Cc1ccccc1
Given back: -6.07

---

System: TK-10 renal
procedure text: NCI-60 one-dose screen, 48 h
setup conditions: 10 µM unless noted
The panel holds about 83,000 compounds, 20% with a hit somewhere; the sample as a whole holds those more often. Active and inactive are the calls of the source. Rule for the calls: active = growth percent below 10; inactive = the rest.
Classes to choose from: 1 = active, 0 = inactive

Example entries begin here.
compound	target	cat
CCN1CCN(c2cc(C)nc(NCc3cc(Nc4ccnc5cc(Cl)ccc45)ccc3F)n2)CC1	TK-10 renal	0
Cc1ccc(C2SCC(=O)N2Cc2ccccc2)cc1 (stereo not given)	TK-10 renal	0
CC/C=C/C/C=C/C/C=C/C/C=C/C/C=C/C/C=C/CCC(=O)Nc1ccn([C@@H]2O[C@H](CO)[C@@H](O)C2(F)F)c(=O)n1	TK-10 renal	0
CCN(CC)S(=O)(=O)c1cccc(-c2ccc3c(NC(=O)C4CC4)n[nH]c3c2)c1	TK-10 renal	0
COC(=O)[C@]12CC[C@@H](C)[C@H](C)[C@@H]1C1=CC[C@@H]3[C@@]4(C)C(C=O)=C[C@@](C)(COS(C)(=O)=O)[C@@H]4C(=O)C[C@@]3(C)[C@]1(C)CC2	TK-10 renal	0

Asked: Call for entry CC1O[C@@H](OC2[C@H](OC(=O)/C=C/c3ccc(O)c(O)c3)C(COC3O[C@H](C)C(O)C(O)[C@@H]3O)O[C@@H](OCCc3ccc(O)c(O)c3)[C@H]2O)[C@@H](O)C(O)[C@H]1O (stereo not given in full) :
Given back: 0

Asked: // outcome(item) with item = O=C1/C(=C2/C=Nc3ccccc32)N(O)c2ccccc21
Given back: 0

Asked: Kindly provide the recorded test outcome for the following compound: CSc1n(Cc2ccc3ccccc3c2)c(C)c[n+]1Cc1ccc2ccccc2c1
Given back: 1

Asked: Just curious, what result did C[C@H]1[C@H]2[C@H]3CC[C@@H]4[C@@]5(C)C/C(=C/c6ccco6)C(=O)C(C)(C)[C@@H]5CC[C@@]4(C)[C@]3(C)CC[C@]23CO[C@]1(C)[C@@H](C(=O)/C=C\c1ccco1)C3 get here?
Given back: 0

Asked: Test call for this compound, please: O=C(CCc1nnc(CN(c2ccccc2)c2ccccc2)o1)c1nc2ccccc2[nH]1
Given back: 0

Asked: For this compound, state the assay outcome: c1ccc(-c2nc([P+](c3ccccc3)(c3ccccc3)c3ccccc3)c(N3CCOCC3)o2)cc1
Given back: 0

Asked: Hi team, can someone confirm the assay call for Nc1nc(N)c2c(n1)NC(c1ccccc1)C1CCc3ccccc3C1=N2 (stereo not given) ?
Given back: 0

Asked: Short answer needed: outcome of this test for C[C@H]1[C@H]2[C@H]3CC[C@@H]4[C@@]5(C)C/C(=C/c6cccnc6)C(=O)C(C)(C)[C@@H]5CC[C@@]4(C)[C@]3(C)CC[C@]23CO[C@]1(C)[C@@H](C(=O)/C=C\c1cccnc1)C3 ?
Given back: 1

Asked: So what was the verdict on CC(=O)c1nc(Nc2ccc(C)cc2)sc1C in this test?
Given back: 0

Asked: Lab log entry: CC(=O)c1ccc(NCC(=O)Nc2ccccn2)cc1 — outcome as called in the assay?
Given back: 0

Asked: I would be grateful if you could indicate the recorded call for Cc1nn(-c2ccccc2)c2nc3c(c(-c4ccc(Cl)cc4)c12)CNC1(CCSCC1)N3 .
Given back: 0

Asked: Name the outcome recorded for O=c1c2c3c(sc2n2c(-c4cn(-c5ccccc5)nc4-c4ccc(Cl)cc4)nnc2n1Cc1ccccc1)CCCC3 in the assay.
Given back: 0
